- Target Or System: CepI wild type (Burkholderia cenocepacia)
- Sequence (B4EMD2 1-202): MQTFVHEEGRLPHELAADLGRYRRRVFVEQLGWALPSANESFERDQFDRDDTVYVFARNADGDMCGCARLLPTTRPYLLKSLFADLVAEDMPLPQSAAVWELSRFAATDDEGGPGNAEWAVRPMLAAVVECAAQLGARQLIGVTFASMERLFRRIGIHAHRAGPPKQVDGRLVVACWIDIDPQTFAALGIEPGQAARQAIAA
Assay Metric: pIC50
// pIC50: -log10(molar conc.)

Query: Any idea what pIC50 was measured for O=C1C=CC(=O)C(C2NC(=O)[C@H](Cc3ccccc3)NC2=O)=C1 (stereo partly shown) [8b] ?
Response: 5.14
